Experiment: chemical genetic growth profiling, strain panel (AID 1159580);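 also: tested at 20 µM; growth read once vehicle control cultures reached saturation at 30 °C; 1 = growth at the plate median or of vehicle wells; lower values mean less growth of the strain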
Conditions: S. cerevisiae deletion strains, growth OD, locus YLR058C, strain SHM2
The whole screen tested about 5,500 compounds, of which about 2,000 (36%) were called active. Not shown: some 18% with an inconclusive outcome. Rule as the data show it: active = normalized growth mostly below about 0.91 (no sharp cut-off); inconclusive = no clear call, values can overlap the other calls; inactive = mostly above about 0.92. Some of the results follow.
Tick one outcome: active, inactive

| COMPOUND | CLASS |
| --- | --- |
| CC(C)=CCC1=C(O)c2ccccc2C(=O)C1=O | inactive |
| COc1cc(OC)c(-c2c(OC)cc(OC)cc2OC)c(OC)c1 | inactive |
| COc1ccc2[nH]cc(CCNC(C)=O)c2c1 | inactive |
| CC1=C2CCC3C(CC[C@]4(C)C(=O)CCC34)[C@@]2(C)CCC1=O (stereo partly specified) | inactive |
| CC(C(=O)O)c1ccc(N2Cc3ccccc3C2=O)cc1 (stereo unspecified) | inactive |
| CC(C)(O)CC[C@@H](O)[C@](C)(O)C1CC[C@@]2(O)C3=CC(=O)C4C[C@@H](O)[C@@H](O)C[C@]4(C)C3CC[C@]12C (stereo partly specified) | inactive |
| CC(=O)OC1CCC2C3CCc4cc(O)ccc4C3CCC12C (stereo unspecified) | inactive |
| CCCc1nc(C(C)(C)O)c(C(=O)OCc2oc(=O)oc2C)n1Cc1ccc(-c2ccccc2-c2nn[nH]n2)cc1 | inactive |

Problem: Test call for this compound, please: COc1c2c(cc3occ(-c4ccc5c(c4)OCO5)c(=O)c13)OC(C)(C)C=C2
Result: inactive

Problem: Test call for this compound, please: CC(C)=CCc1c(O)cc2occ(-c3ccc4c(c3)OCO4)c(=O)c2c1O
Result: inactive

Problem: Test call for this compound, please: C[C@]12C=CC(=O)C=C1CCC1C2C(=O)C[C@@]2(C)C1CC[C@]2(O)C(=O)CO (stereo partly specified)
Result: inactive

Problem: Test call for this compound, please: CCOc1nc2cccc(C(=O)OC(C)OC(=O)OC3CCCCC3)c2n1Cc1ccc(-c2ccccc2-c2nn[nH]n2)cc1 (stereo unspecified)
Result: inactive

Problem: Test call for this compound, please: C[C@]12CCC3C(CC[C@H]4C[C@@H](O)CC[C@]34C)C1CCC2=O (stereo partly specified)
Result: active

Problem: Test call for this compound, please: CC1=C(C(=O)O)N2C(=O)[C@@H](NC(=O)[C@H](N)C3=CCC=CC3)C2SC1 (stereo partly specified)
Result: inactive

Problem: Test call for this compound, please: C[C@]12C=CC(=O)C=C1CCC1C2CC[C@]2(C)C(=O)CCC12 (stereo partly specified)
Result: inactive

Problem: Test call for this compound, please: O=c1cc(-c2ccc(O)cc2)oc2cc(O[C@@H]3O[C@H](CO)[C@@H](O)[C@H](O)[C@H]3O[C@@H]3OC[C@](O)(CO)[C@H]3O)cc(O)c12
Result: inactive

Problem: Test call for this compound, please: COc1ccc(Cc2nccc3cc(OC)c(OC)cc23)cc1OC
Result: inactive

Problem: Test call for this compound, please: COc1cc(OC)cc(OC)c1
Result: inactive

* * *

Assay: chemical genetic growth profiling, strain panel (AID 1159580)
Settings: S. cerevisiae deletion strains, growth OD, locus YMR223W, strain ubp8, active compounds read low
About 2,000 (36%) of roughly 5,500 compounds were called active. About 18% were inconclusive and are not listed. This is one part of the list.
Response field label: string, one of yes (normalized growth strictly below 1) or no.

| INPUT SMILES | CLASS |
| --- | --- |
| O=C1c2ccccc2C(=O)c2c1ccc(O)c2O | yes |
| CCS(=O)(=O)CCn1c([N+](=O)[O-])cnc1C | no |
| COc1ccc2[nH]cc(CCNC(C)=O)c2c1 | no |
| COc1c2c(cc3occ(-c4ccc5c(c4)OCO5)c(=O)c13)OC(C)(C)C=C2 | yes |

Shifting focus to the compound that follows.
Problem: Input CC1(C)C=Cc2c(cc3occ(-c4ccc5c(c4)OCO5)c(=O)c3c2O)O1 ; condition: normalized growth strictly below 1. Does it hold?
Result: yes

* * *

For each record, write down the corresponding normalized growth.
Assay: chemical genetic growth profiling, strain panel (AID 1159580)
Details: S. cerevisiae deletion strains, growth OD, locus YNL183C, strain NPR1, active compounds read low
Among all 5,500 compounds or so, about 2,000 (36%) were called active. Roughly 18% stayed inconclusive and do not appear here. Some of the results follow.
Give bare numbers.

Hi there! I need normalized growth for each item below, if you can.
1. COc1ccc(-c2cc(NS(=O)(=O)c3cccc(F)c3)n(-c3ccc(Cl)c(Cl)c3)n2)cc1
2. Nc1ccc(N2CCN(c3ccc(C(F)(F)F)cn3)CC2)nc1

Result:
[0.956, 1.01]

* * *

Assay: chemical genetic growth profiling, strain panel (AID 1159580)
Conditions: S. cerevisiae deletion strains, growth OD, locus YER016W, strain bim1, active compounds read low
In all, about 5,500 compounds went through this assay and about 2,000 (36%) were called active. Not shown: some 18% with an inconclusive outcome. The list shows a part of the results.
ATTRIBUTE MEASURED: normalized growth
Answers are plain numbers.

Some solved cases for reference:
| COMPOUND | normalized growth |
| --- | --- |
| COc1cc(O)c(C(=O)O)c(O)c1 | 0.989 |
| Cn1cnc([N+](=O)[O-])c1Sc1ncnc2nc[nH]c12 | 1.01 |
| CCOC(=O)C1=C(C)NC(C)=C(C(=O)OC)C1c1cccc([N+](=O)[O-])c1 (stereo not given) | 1.01 |
| CN1Cc2c(N)cccc2C(c2ccccc2)C1 (stereo not given) | 1.01 |

Reported normalized growth for O=C1c2ccccc2C(=O)c2c(O)c(O)cc(O)c21 was 0.505

* * *

Assay: chemical genetic growth profiling, strain panel (AID 1159580);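 also: tested at 20 µM; growth read once vehicle control cultures reached saturation at 30 °C; 1 = growth at the plate median or of vehicle wells; lower values mean less growth of the strain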
Conditions: S. cerevisiae deletion strains, growth OD, locus YJR066W, strain TOR1, active compounds read low
Screen size: about 5,500 compounds; about 2,000 (36%) were called active. Roughly 18% stayed inconclusive and do not appear here. The list shows a part of the results.
Recorded normalized growth determines the group label, using A (below 0.9), B (0.9 to below 1), C (1 or more)

Examples from the recorded data:
| MOLECULE | CLASS |
| --- | --- |
| C[C@]12CCC3c4ccc(O)cc4CCC3C1CC[C@@H]2OC(=O)CCC1CCCC1 (stereo partly specified) | B |
| CCCc1nc(C(C)(C)O)c(C(=O)OCc2oc(=O)oc2C)n1Cc1ccc(-c2ccccc2-c2nn[nH]n2)cc1 | B |
| COc1cc(OC)c(C(C)=O)c(O)c1C | A |
| Cc1nc([N+](=O)[O-])cn1CC(=O)c1ccc(Cl)cc1 | C |

Shifting focus to the molecule that follows.
Problem: Note: place this molecule into its band. Item: CC1=C2CCC3C(CC[C@]4(C)C(=O)CCC34)[C@@]2(C)CCC1=O (stereo partly specified)
Result: A

* * *

Assay: chemical genetic growth profiling, strain panel (AID 1159580);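 also: tested at 20 µM; growth read once vehicle control cultures reached saturation at 30 °C; 1 = growth at the plate median or of vehicle wells; lower values mean less growth of the strain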
Settings: S. cerevisiae deletion strains, growth OD, locus YMR205C, strain PFK2 (second series)
About 2,000 (36%) of roughly 5,500 compounds were called active. Roughly 18% stayed inconclusive and do not appear here. No stated cut-off is given here; in the data, active means normalized growth mostly below about 0.91 (no sharp cut-off); inconclusive means no clear call, values can overlap the other calls; inactive means mostly above about 0.92. This is one part of the list.
Tick one outcome: active, inactive

Examples from the recorded data:
| COMPOUND | CLASS |
| --- | --- |
| N/C(=N/OC(=O)c1ccccc1Cl)c1cccc(CS(=O)(=O)c2ccc(Cl)cc2)c1 | inactive |
| N#C/C(=N/Nc1ccc(C(F)(F)F)cc1)C(=O)C1CC1 | inactive |
| CN(NC(=S)Nc1cc(Cl)ccc1Cl)c1ccc(C(F)(F)F)cc1[N+](=O)[O-] | inactive |
| CC(/C=C/c1ccccc1)=N/OC(=O)c1ccccc1Cl | inactive |

Problem: Test call for this compound, please: CC(Oc1ccc(Cl)cc1Cl)C(=O)NNC(=S)Nc1ccccc1 (stereo unspecified)
Result: inactive

Problem: Test call for this compound, please: O=C(OCc1ccc(Oc2ccc(Cl)cc2Cl)c([N+](=O)[O-])c1)c1ccc([N+](=O)[O-])o1
Result: inactive

Problem: Test call for this compound, please: FC(F)(F)c1ccc(NC(=S)Nc2ccc(C(F)(F)F)cc2Cl)c(Cl)c1
Result: inactive

Problem: Test call for this compound, please: CCCCCc1ccc(S(=O)(=O)Nc2ncc(C)cc2Br)cc1
Result: inactive

* * *

Experiment: chemical genetic growth profiling, strain panel (AID 1159580);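 also: tested at 20 µM; growth read once vehicle control cultures reached saturation at 30 °C; 1 = growth at the plate median or of vehicle wells; lower values mean less growth of the strain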
Conditions: S. cerevisiae deletion strains, growth OD, locus YNL307C, strain MCK1
About 2,000 (36%) of roughly 5,500 compounds were called active. Another 18% or so got no clear call; they are omitted. Cut-off read from the data, not from the text of the source: active = normalized growth mostly below about 0.91 (no sharp cut-off); inconclusive = no clear call, values can overlap the other calls; inactive = mostly above about 0.92. This is one part of the list.
Tick one outcome: 1.0 (active), 0.0 (inactive)

Examples from the recorded data:
| COMPOUND | CLASS |
| --- | --- |
| CC1=C(C(=O)O)N2C(=O)[C@@H](NC(=O)[C@H](N)C3=CCC=CC3)C2SC1 (stereo partly specified) | 0.0 |
| CCCCC/C=C\C/C=C\C/C=C\C/C=C\CCCC(=O)O | 1.0 |

Problem: Test call for this compound, please: O=c1[nH]c2ccccc2n1C1CCN(CCCC(c2ccc(F)cc2)c2ccc(F)cc2)CC1
Result: 0.0

Problem: Test call for this compound, please: Cc1ncc([N+](=O)[O-])n1CCO
Result: 0.0

Problem: Test call for this compound, please: O=[N+]([O-])/N=C1/NCCN1Cc1ccc(Cl)cc1
Result: 0.0

Problem: Test call for this compound, please: Cc1cc(O)c2c(c1O)C(=O)c1c(O)cc(C)c(O)c1C2=O
Result: 0.0

Problem: Test call for this compound, please: O=C(CCCN1CC=C(n2c(=O)[nH]c3ccccc32)CC1)c1ccc(F)cc1
Result: 0.0

Problem: Test call for this compound, please: CC(C(=O)O)c1ccc(N2Cc3ccccc3C2=O)cc1 (stereo unspecified)
Result: 0.0

Problem: Test call for this compound, please: CN(C)c1nc(N(C)C)nc(N(C)C)n1
Result: 0.0

Problem: Test call for this compound, please: Nc1ncnc2c1ncn2[C@@H]1O[C@H](CO)[C@@H](O)[C@@H]1O
Result: 0.0

Problem: Test call for this compound, please: O=C1c2ccccc2C(=O)c2c1ccc(O)c2O
Result: 1.0
